meta.source: ChEMBL document CHEMBL1125960

- Test system: Plasmodium falciparum
- test: Growth inhibition of chloroquine-resistant Plasmodium falciparum
- Format: functional, organism-based
pIC50: −log10 of the molar value.
readout_name: pIC50

• OC1OC(CSC(F)(F)F)C(O)C1O (stereo unspecified) = < 4.00
